This collection of values is drawn from ChEMBL document CHEMBL1131047.

molecular target: Human immunodeficiency virus type 1 reverse transcriptase (Human immunodeficiency virus 1, UniProt Q72547, Y181C); experiment: Inhibitory activity against HIV-1 Y181C reverse transcriptase.
pIC50: −log10 of the molar value.
A collection of molecules and their measured pIC50

SMILES REPRESENTATION: CCN1c2ncc(CCc3ccnc(C(=O)OC)c3)cc2C(=O)N(C)c2ccc(Cl)nc21
pIC50: 6.32
--
SMILES REPRESENTATION: CCN1c2ncc(CCC(N)=O)cc2C(=O)N(C)c2cccnc21
pIC50: 5.21
--
SMILES REPRESENTATION: CCN1c2ncc(CCc3cccc(F)c3)cc2C(=O)N(C)c2cccnc21
pIC50: 6.43
--
SMILES REPRESENTATION: CCN1c2ncc(CCc3ccnc(C)c3)cc2C(=O)N(C)c2ccc(Cl)nc21
pIC50: 6.85
--
SMILES REPRESENTATION: CCN1c2ncc(CCc3ccc(NS(C)(=O)=O)cc3)cc2C(=O)N(C)c2ccc(Cl)nc21
pIC50: 6.25

* * *

biological target: Human immunodeficiency virus type 1 reverse transcriptase (Human immunodeficiency virus 1, UniProt Q72547, Y181C); assay: Inhibitory activity against HIV-1 Y181C reverse transcriptase.
pIC50: −log10 of the molar value.
A collection of compounds and their measured pIC50
ASSAY READOUT: pIC50

SMILES REPRESENTATION: CCN1c2ncc(CCc3ccncc3)cc2C(=O)N(C)c2ccc(F)nc21
ASSAY READOUT: pIC50
BOUND TYPE: =
MEAS VALUE: 7.10
//
SMILES REPRESENTATION: CCN1c2ncc(Cl)cc2C(=O)N(C)c2cccnc21
ASSAY READOUT: pIC50
BOUND TYPE: <
MEAS VALUE: 6.00
//
SMILES REPRESENTATION: CCN1c2ncc(CCc3ccc(C)cc3)cc2C(=O)N(C)c2ccc(Cl)nc21
ASSAY READOUT: pIC50
BOUND TYPE: =
MEAS VALUE: 5.93
//
SMILES REPRESENTATION: CCN1c2ncc(CCc3ccncc3)cc2C(=O)N(C)c2ccc(I)nc21
ASSAY READOUT: pIC50
BOUND TYPE: =
MEAS VALUE: 6.74
//
SMILES REPRESENTATION: CCN1c2ncc(CCc3cccc(N)c3)cc2C(=O)N(C)c2ccc(Cl)nc21
ASSAY READOUT: pIC50
BOUND TYPE: =
MEAS VALUE: 6.64
//
SMILES REPRESENTATION: CCN1c2ncc(CCc3ccccn3)cc2C(=O)N(C)c2cccnc21
ASSAY READOUT: pIC50
BOUND TYPE: <
MEAS VALUE: 6.00
//
SMILES REPRESENTATION: CCN1c2ncc(CCCO)cc2C(=O)N(C)c2cccnc21
ASSAY READOUT: pIC50
BOUND TYPE: =
MEAS VALUE: 5.54
//
SMILES REPRESENTATION: CCN1c2ncc(CCc3cncnc3)cc2C(=O)N(C)c2cccnc21
ASSAY READOUT: pIC50
BOUND TYPE: <
MEAS VALUE: 6.00
//
SMILES REPRESENTATION: CCN1c2ncc(CCc3ccnc(C(=O)O)c3)cc2C(=O)N(C)c2ccc(Cl)nc21
ASSAY READOUT: pIC50
BOUND TYPE: =
MEAS VALUE: 5.42
//
SMILES REPRESENTATION: CCN1c2ncc(CCO)cc2C(=O)N(C)c2cccnc21
ASSAY READOUT: pIC50
BOUND TYPE: =
MEAS VALUE: 5.60
//
SMILES REPRESENTATION: CCN1c2ncc(Cc3ccccc3)cc2C(=O)N(C)c2cccnc21
ASSAY READOUT: pIC50
BOUND TYPE: =
MEAS VALUE: 5.92
//
SMILES REPRESENTATION: CCN1c2ncc(CCc3cccc(NS(C)(=O)=O)c3)cc2C(=O)N(C)c2ccc(Cl)nc21
ASSAY READOUT: pIC50
BOUND TYPE: =
MEAS VALUE: 6.85
//
SMILES REPRESENTATION: CCN1c2ncc(CCc3ccnc(C)c3)cc2C(=O)N(C)c2cccnc21
ASSAY READOUT: pIC50
BOUND TYPE: =
MEAS VALUE: 7.05
//
SMILES REPRESENTATION: CCN1c2ncc(/C=C\c3ccccc3)cc2C(=O)N(C)c2cccnc21
ASSAY READOUT: pIC50
BOUND TYPE: =
MEAS VALUE: 6.24
//
SMILES REPRESENTATION: CCN1c2ncc(CCc3ccccc3C)cc2C(=O)N(C)c2ccc(Cl)nc21
ASSAY READOUT: pIC50
BOUND TYPE: <
MEAS VALUE: 6.00
//
SMILES REPRESENTATION: CCN1c2ncc(CCC(=O)OC)cc2C(=O)N(C)c2cccnc21
ASSAY READOUT: pIC50
BOUND TYPE: =
MEAS VALUE: 6.85
